- tested_on: HIV-1 Rev (Human immunodeficiency virus 1, UniProt P04618 P04618:1-116)
- Sequence (P04618 whole entry, one chain of several): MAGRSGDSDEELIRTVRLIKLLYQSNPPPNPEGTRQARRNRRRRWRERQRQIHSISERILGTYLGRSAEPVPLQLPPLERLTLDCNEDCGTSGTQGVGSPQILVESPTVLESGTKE
- method_notes: filter; 50 mM KCl, 4 C; 20% bound at 10 nM rev
- experimental_conditions: tags: none stated; heparin-Sepharose and Superose 6 purified; chain copies: oligomer (tetramer likely; about 4 per RBC6, 6-8 per full-length RRE at 50 mM KCl) stated; label: 32P uniform
observation_type: Kd
In your response, the unit should come after the numeric value.

I would be grateful if you could share the reported Kd for R50 (ssRNA, [-]) RNA: GGGAGACCGGAAUUCUGGACGCAGUGUCAUUGACGCUGCGGUACAGAAUUCCGGCA . 5 nM
